Recorded measurements of ED50, one per entry
Test System: β1-adrenoceptor (Rattus norvegicus)
Construct: positive chronotropic and depressor effects in the anesthetized rats; from tissue; host or cells: whole living rat (heart rate response to isadrin); endogenous receptor
Sequence (P18090 whole entry): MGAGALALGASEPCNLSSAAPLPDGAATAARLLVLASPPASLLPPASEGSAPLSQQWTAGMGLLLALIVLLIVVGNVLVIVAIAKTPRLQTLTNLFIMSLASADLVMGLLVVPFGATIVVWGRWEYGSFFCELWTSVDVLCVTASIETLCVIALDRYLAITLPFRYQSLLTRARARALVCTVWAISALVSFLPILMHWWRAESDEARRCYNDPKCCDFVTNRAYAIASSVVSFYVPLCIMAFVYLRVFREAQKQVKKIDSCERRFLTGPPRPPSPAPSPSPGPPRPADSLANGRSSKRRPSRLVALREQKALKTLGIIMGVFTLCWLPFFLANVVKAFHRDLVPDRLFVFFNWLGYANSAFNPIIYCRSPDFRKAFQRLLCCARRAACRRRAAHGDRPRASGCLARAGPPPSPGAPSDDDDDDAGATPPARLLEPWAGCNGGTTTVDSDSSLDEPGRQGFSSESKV
Experiment Description: Inhibition of isadrin's positive chronotropic effect, i.v., anesthetized rats
Format: in vivo
Test Conditions: rat, iv, read-out: Dosage inhibiting isadrin's positive chronotropism by 50% (ED50)

Molecule: CC(CCc1ccccc1)NCC(O)c1ccc(O)c(C(N)=O)c1 (stereo not shown)
ED50 (mg/kg): 0.7
//
Molecule: C=CCOc1ccccc1OCC(O)CNC(C)C (stereo not shown)
ED50 (mg/kg): 0.26
//
Molecule: Cc1noc(COc2ccccc2OCC(O)CNC(C)(C)C)n1.Cl (stereo not shown)
ED50 (mg/kg): 0.03
//
Molecule: CC(C)NCC(O)COc1cccc2[nH]ccc12 (stereo not shown) [Pindolol, pindolol, reference compound]
ED50 (mg/kg): 0.025
